Catalogue of binders with associated Ratio binding Peptide/p60 (fold change)
- systemTested: human FOXP3 tagged with 6 histidines at the C terminus (human) (UniProt Q9BZS1)
- Sequence (Q9BZS1 other isoform, or with tags, fused parts or gaps): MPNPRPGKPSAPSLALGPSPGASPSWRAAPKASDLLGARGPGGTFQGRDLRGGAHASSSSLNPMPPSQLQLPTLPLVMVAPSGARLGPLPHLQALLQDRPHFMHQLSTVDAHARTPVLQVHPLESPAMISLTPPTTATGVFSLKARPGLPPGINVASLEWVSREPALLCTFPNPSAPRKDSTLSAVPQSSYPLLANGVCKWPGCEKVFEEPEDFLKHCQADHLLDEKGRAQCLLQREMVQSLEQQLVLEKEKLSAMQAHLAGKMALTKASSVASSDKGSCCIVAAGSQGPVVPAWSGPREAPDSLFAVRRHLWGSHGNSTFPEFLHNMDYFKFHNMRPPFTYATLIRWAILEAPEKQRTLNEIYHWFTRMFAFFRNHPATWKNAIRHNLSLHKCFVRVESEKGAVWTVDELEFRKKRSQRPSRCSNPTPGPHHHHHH
- experimentNotes: SPR (ProteOn XPR36), FOXP3-6His immobilized on GLM chip, peptide 1-20 µM injected; ratio to p60 (SEQ ID NO: 1)
assayReadout: Ratio binding Peptide/p60 (fold change)

* RDFQSFRKMWVFFAM [peptide of SEQ ID NO: 33] | 1.3
* RDWQSFRKMWPFFAM [peptide of SEQ ID NO: 16] | 3.7
* RSFQSFRKMWPFFAM [peptide of SEQ ID NO: 7] | 1.4
